ASSAY_TEXT: Kinetic solubility in PBS pH 7.4, HPLC-UV (Example 21, Table 27)
Format: physicochemical
RECORDED_CONDITIONS: phosphate buffered saline, aqueous buffer, kinetic from dmso stock, 0.5 M PBS, shaken minimum 24 h at approximately 25° C., HPLC-UV 270 nm
OBSERVABLE: solubility kinetic (µM)
API: value field is a number in µM; no unit string.

Query: Sample CCCCCOc1cc(N2CCCN(Cc3ccnc4c3c(C)cn4CC(=O)N(C)C)C2=O)ccc1OC [CU0258] — what was its solubility kinetic?
Response: 462

Query: Another molecule to check: CCCCCOc1cc(N2CC[C@H](C)N(Cc3ccnc4c3c(Cl)cn4CC(=O)N(C)C)C2=O)ccc1OC [SC0108]
Response: 141

Query: Another molecule to check: CCCCCOc1cc(N2CC[C@H](C)N(Cc3cccc4c3ccn4CC(=O)N3CCO[C@@H](CN(C)C)C3)C2=O)ccc1OC [SC0171]
Response: 356

Query: Another molecule to check: CCCCCOc1cc(N2CCCN(Cc3ccc(CC(=O)N4CCCN(C)CC4)cc3OC)C2=O)ccc1OC [CU0104]
Response: 269

Query: Another molecule to check: CCCCCOc1cc(N2CCCN(Cc3ccc(C4CN(C)C(=O)O4)cc3OC)C2=O)ccc1OC (stereo not shown) [CU0618]
Response: 179

Query: Another molecule to check: CCCCCOc1cc(N2CCCN(Cc3ccc(CC(N)=O)cc3OC)C2=O)ccc1OC [CU0188]
Response: 73

Query: Another molecule to check: CCCCCOc1cc(N2CCCN(Cc3ccc(CCN4CCCC4(C)C)cc3OC)C2=O)ccc1OC [CU0671]
Response: 397

Query: Another molecule to check: CCCCCOc1cc(N2CCCN(Cc3cccc4c3ccn4CC3(O)CCN(CC(=O)N(C)C)CC3)C2=O)ccc1OC [CU0675]
Response: 430

Query: Another molecule to check: CCCCCOc1cc(N2CCCN(Cc3ccc(CC(=O)N(C)C4CCN(CC)C4)cc3OC)C2=O)ccc1OC (stereo not shown) [CU0177]
Response: 351

Query: Another molecule to check: CCCCCOc1cc(N2CC[C@H](C)N(Cc3cccc4c3ccn4CC(=O)N3CCO[C@@H](COC)C3)C2=O)ccc1OC [SC0009]
Response: 167

Query: Another molecule to check: COc1cc(CC(=O)N2CCNC(=O)C2)ccc1CN1CC(C)CN(c2ccc(OC)c(OCCCC3CC3)c2)C1=O (stereo not shown) [SC0158]
Response: 16

Query: Another molecule to check: CCCCCOc1cc(N2CCCN(Cc3ccc(CCN4CCN(C)CC4)cc3OC)C2=O)ccc1OC [CU0178]
Response: 423

Query: Another molecule to check: CCCCCOc1cc(N2CCCN(Cc3ccnc4c3c(Cl)cn4CC(=O)N3CC[C@@H](N(C)C)C3)C2=O)ccc1OC [CU0520]
Response: 366
